system: HCT-15 colon; assay: NCI-60 one-dose screen, 48 h (100 = growth as untreated, 0 = no growth, -100 = all killed); conditions: 10 µM unless noted
This is part of a sample that, as a whole, favours compounds with a hit. Of some 83,000 tested, about 20% had one in any assay.
Binary call on growth with cut-off 10%: strictly below means label 1, and equality or higher means label 0.

- Molecule: "O=C1CCC(C(=O)N/N=C/c2ccc([N+](=O)[O-])cc2)N1 (stereo unspecified)"
  Tested On: "HCT-15 colon"
  Assigned Category: "label 0"
- Molecule: "Clc1ccc2c(NCCCn3cnc4c(N5CCCC5)nc(Cl)nc43)ccnc2c1"
  Tested On: "HCT-15 colon"
  Assigned Category: "label 0"
- Molecule: "CCOC(=O)c1ccc2c(c1)c1c(C)c3cnccc3c(C)c1n2C"
  Tested On: "HCT-15 colon"
  Assigned Category: "label 1"
- Molecule: "COc1ccc(C2=NN3C(C2)c2cc(Br)ccc2OC3c2ccncc2)cc1 (stereo unspecified)"
  Tested On: "HCT-15 colon"
  Assigned Category: "label 0"
- Molecule: "Cn1ccnc1C(=O)/C=C/c1ccc(C(=O)Nc2ccccc2F)cc1"
  Tested On: "HCT-15 colon"
  Assigned Category: "label 0"
- Molecule: "O=C1/C(=C/c2ccc(Br)cc2)COc2ccc(O)cc21"
  Tested On: "HCT-15 colon"
  Assigned Category: "label 0"
- Molecule: "COc1ccc(-c2cc(-c3ccc(Nc4nc(Nc5ccc(Cl)cc5)nc(Nc5ccc(Cl)cc5)n4)cc3)no2)cc1"
  Tested On: "HCT-15 colon"
  Assigned Category: "label 0"
- Molecule: "O=C(O)COc1ccc(F)cc1"
  Tested On: "HCT-15 colon"
  Assigned Category: "label 0"
- Molecule: "CN(C)CCCN(CCC1CCCCC1)CCC1CCCCC1"
  Tested On: "HCT-15 colon"
  Assigned Category: "label 0"
- Molecule: "Cc1ccc(-c2nn(CC(=O)N3CCOCC3)c(N)c2C#N)cc1"
  Tested On: "HCT-15 colon"
  Assigned Category: "label 0"
- Molecule: "CC/C(=C(/c1ccc(Cl)cc1)c1ccc(OCCN2CCCCCC2)cc1)c1ccccc1"
  Tested On: "HCT-15 colon"
  Assigned Category: "label 0"
- Molecule: "O=C(OCc1ccc2c(Br)cc(Br)c(O)c2n1)N1CCN(C(=O)c2cc3ccccc3[nH]2)CC1"
  Tested On: "HCT-15 colon"
  Assigned Category: "label 0"
- Molecule: "O=C1C=CC2(O)OC(c3ccccc3)CC(=O)C2=C1O (stereo unspecified)"
  Tested On: "HCT-15 colon"
  Assigned Category: "label 0"
- Molecule: "COc1cc(/C=C/c2cc(/C=C/c3ccc(O)c(OC)c3)n(C(=O)Nc3ccc(C)cc3C)n2)ccc1O"
  Tested On: "HCT-15 colon"
  Assigned Category: "label 1"
- Molecule: "CCOC(=O)C1=C(c2ccccc2)N=C2N(c3ccccc3)N=C(C(C)=O)N2C1c1ccc(Br)cc1 (stereo unspecified)"
  Tested On: "HCT-15 colon"
  Assigned Category: "label 0"
- Molecule: "COC(=O)[C@H](C)NC(=O)[C@@H]1CCCN1C(=O)CNC(=O)[C@H](C)N"
  Tested On: "HCT-15 colon"
  Assigned Category: "label 0"
- Molecule: "Cc1c(C)c2c(c(C)c1OC(=O)CCC(=O)[O-])CCC(C)(CCCCCCCCCCC[P+](c1ccccc1)(c1ccccc1)c1ccccc1)O2 (stereo unspecified)"
  Tested On: "HCT-15 colon"
  Assigned Category: "label 1"
- Molecule: "Cc1cc(N2CCOCC2)nc(N(CCCNc2ccnc3cc(Cl)ccc23)Cc2ccc3c(c2)OCO3)n1"
  Tested On: "HCT-15 colon"
  Assigned Category: "label 1"
- Molecule: "CCCCCC(C)(O)C(C(=O)O)c1ccccc1 (stereo unspecified)"
  Tested On: "HCT-15 colon"
  Assigned Category: "label 0"
- Molecule: "COc1ccc(-c2ccc(-c3ccc(C(=N)N)o3)o2)cc1"
  Tested On: "HCT-15 colon"
  Assigned Category: "label 1"
- Molecule: "CC(C)n1nc(-c2ccc3oc(N)nc3c2)c2c(N)ncnc21"
  Tested On: "HCT-15 colon"
  Assigned Category: "label 1"

Origin of the recorded values: PubChem BioAssay (NCI)
